tested on: MCC-26; assay: qHTS assay to identify novel small-molecules to repurpose for Merkel cell carcinoma treatment (AID 1296009); settings: MCC and control cell lines, CellTiter-Glo viability, 72 h; series mostly up to 46 µM; further: nearly all actives have a fitted effect of over 60% in size; further: potency means the concentration at half of the fitted maximal effect
Results filed as inconclusive are left out. Calls of active or inactive are those of the source. The call rests on the fitted dose curve; in most records, active means well fitted inhibition curve with a large enough effect; inconclusive means small, poorly fitted or top-dose-only effect; inactive means flat fitted curve, though single readings scatter.

molecule	Potency
FC(F)(F)c1ccc(Nc2nc3ccc(Oc4ccnc(-c5ncc(C(F)(F)F)[nH]5)c4)cc3[nH]2)cc1	inactive
NC(=O)c1ncn([C@@H]2O[C@H](CO)[C@@H](O)[C@@H]2O)c1O	inactive
C=Cc1c(C)c2cc3nc(cc4[nH]c(cc5nc(cc1[nH]2)C(C)=C5CCC(=O)O)c(CCC(=O)OC)c4C)[C@@]1(C)C3=CC=C(C(=O)OC)[C@H]1C(=O)OC	2960 nM (active)
C#CCC(Cc1cnc2nc(N)nc(N)c2n1)c1ccc(C(=O)N[C@@H](CCC(=O)O)C(=O)O)cc1 (stereo not given in full)	inactive
CC(=O)N[C@@H]1[C@H](O[C@@H]2c3ccc(c(Cl)c3)Oc3cc4cc(c3O[C@H]3O[C@H](CO)[C@@H](O)[C@H](O)[C@H]3NC(=O)CCCCCCCC(C)C)Oc3ccc(cc3Cl)C[C@H]3NC(=O)[C@H](N)c5ccc(O)c(c5)Oc5cc(O)cc(c5)[C@H](NC3=O)C(=O)N[C@H]4C(=O)N[C@H]3C(=O)N[C@@H]2C(=O)N[C@@H](C(=O)O)c2cc(O)cc(O[C@H]4O[C@H](CO)[C@@H](O)[C@H](O)[C@H]4O)c2-c2cc3ccc2O)O[C@H](CO)[C@@H](O)[C@@H]1O	inactive
